- MEASUREMENT_TARGET: T1, human PACAP27 (human, C-terminal leucine is amidated; 125I-labelled in Example 10)
- T1 peptide: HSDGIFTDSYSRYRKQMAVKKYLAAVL
- TEST: SPR, Ab immobilised
ASSAY_ENDPOINT: Kd

Below, 3 binders whose answers are already recorded.
BINDER: anti-PACAP antibody Ab18 (antibody, human IgG1, kappa, N297A, V domains shown, full-length rabbit/human chimeric antibody) VH: QSVEESGGRLVTPGTPLTLTCTVSGFSLSSAALSWVRQAPGKGLEWIGIIDKGVMSYYASWAKGRFTISKTSSTTVDLKVTSPTTEDTATYFCARGGGEFFIWGQGTLVTVSS VL: AQVLTQTPSSVSAAVGGTVTINCQSSKSVYNNNWLSWYQQKPGQPPKFLIYQASNLASGVPSRFKGSGSGTQFTLTISDLECDDAATYYCAGGYSGNIVGFGGGTEVVVKR
Kd: ≤ 0.023 nM

BINDER: anti-PACAP antibody Ab4.H (antibody, human IgG1, kappa, N297A, V domains shown, humanized form of Ab4, full length) VH: EVQLVESGGGLVQPGGSLRLSCAASGFSLSSYDMSWVRQAPGKGLEWIGIINTNDDTWYASWVKGRFTISRDNSKNTLYLQMNSLRAEDTAVYYCARISDAYVFDYAYYFTLWGQGTLVTVSS VL: DIQMTQSPSTLSASVGDRVTITCLASQNIYNSLAWYQQKPGKAPKLLIYRASTLASGVPSRFSGSGSGTEFTLTISSLQPDDFATYYCQQGAGADNIGNPFGGGTKVEIKR
Kd: ≤ 0.031 nM

BINDER: anti-PACAP antibody Ab17 (antibody, human IgG1, kappa, N297A, V domains shown, full-length rabbit/human chimeric antibody) VH: QSVEESGGRLVTPGTPLTLTCTVSGFSLSSAAMNWVRQAPGKGLEWIGIFDPYSSTYYASWAKGRFTISKTSSTTVDLKMTSPTTEDTATYFCARGGGEFFIWGPGTLVTVSS VL: AQVLTQTPSSVSAAVGGTVTINCQSSQSVYKNKYLSWYQQKVGQPPKFLIYQASNLASGVPSRFKGSGSGTQFTLTISDLECDDAATYYCAGGYSGNMVDFGGGTEVVVKR
Kd: ≤ 0.027 nM

Could you please provide reported Kd for anti-PACAP antibody Ab2 (antibody, human IgG1, kappa, N297A, V domains shown, full-length rabbit/human chimeric antibody) VH: QSVEESGGRLVTPGTPLTLTCTVSGFSLSGAAMNWVRQAPGKGLEWIGVIGNSGSTYYASWAKGRFTISKTSSTTVDLKMTSPTTEDTATYFCARGGGEFFIWGQGTLVTVSS VL: AQVLTQTPSPVSAAVGGTVTINCQSSESVYKNNYLSWYQQKPGQPPKFLIYQASNLADGVPSRFKGSGSGTQFTLTISDLECDDAATYYCAGGYSTYMSGFGGGTEVVVKR ? Thanks!
≤ 0.012 nM
